targetUnderTest: T1, Cynomolgus monkey glycophorin A on Cynomolgus monkey red blood cells (Cynomolgus monkey)
T1 construct: whole, on cells; also called Cyno RBC; Cyno GPA
protocolNotes: FACS, RBC Cy01
assayMetric: fluorescence intensity
The answer should be written as a number, with no unit following it.

Observe how each entry below is paired with its result.
Please give measured fluorescence intensity of the following entry: Hu6C12-3 (antibody, V domains shown, IgG format; VH.1c + Vk.1) VH: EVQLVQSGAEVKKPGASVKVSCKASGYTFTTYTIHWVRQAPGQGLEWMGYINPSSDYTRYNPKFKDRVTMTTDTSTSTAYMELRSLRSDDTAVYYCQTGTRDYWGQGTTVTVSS VL: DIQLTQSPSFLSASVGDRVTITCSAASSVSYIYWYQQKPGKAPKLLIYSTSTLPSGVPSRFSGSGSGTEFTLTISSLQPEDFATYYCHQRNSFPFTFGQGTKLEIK
1120

Please give measured fluorescence intensity of the following entry: Hu6C12-14 (antibody, V domains shown, IgG format; VH.1e + Vk.1a) VH: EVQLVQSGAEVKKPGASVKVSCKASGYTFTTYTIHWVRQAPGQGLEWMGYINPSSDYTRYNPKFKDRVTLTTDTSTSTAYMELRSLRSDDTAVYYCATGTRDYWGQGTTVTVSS VL: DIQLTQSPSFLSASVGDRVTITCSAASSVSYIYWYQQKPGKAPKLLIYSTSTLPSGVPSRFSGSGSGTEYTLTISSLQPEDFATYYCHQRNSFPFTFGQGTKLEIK
978

// moving on: another record for fluorescence intensity
Please give measured fluorescence intensity of the following entry: Hu6C12-2 (antibody, V domains shown, IgG format; VH.1b + Vk.1) VH: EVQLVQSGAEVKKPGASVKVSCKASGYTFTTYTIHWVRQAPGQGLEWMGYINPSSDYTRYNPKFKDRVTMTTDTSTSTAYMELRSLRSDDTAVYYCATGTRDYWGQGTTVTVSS VL: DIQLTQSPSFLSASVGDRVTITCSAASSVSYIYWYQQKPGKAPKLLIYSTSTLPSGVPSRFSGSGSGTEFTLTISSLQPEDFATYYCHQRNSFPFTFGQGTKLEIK
962

Values compiled from patent US20190359687A1.
